Data provenance is ChEMBL document CHEMBL5230151.

# EXPERIMENTAL_SYSTEM: Acetylcholinesterase (Electrophorus electricus, UniProt O42275)
# Sequence (O42275 whole entry): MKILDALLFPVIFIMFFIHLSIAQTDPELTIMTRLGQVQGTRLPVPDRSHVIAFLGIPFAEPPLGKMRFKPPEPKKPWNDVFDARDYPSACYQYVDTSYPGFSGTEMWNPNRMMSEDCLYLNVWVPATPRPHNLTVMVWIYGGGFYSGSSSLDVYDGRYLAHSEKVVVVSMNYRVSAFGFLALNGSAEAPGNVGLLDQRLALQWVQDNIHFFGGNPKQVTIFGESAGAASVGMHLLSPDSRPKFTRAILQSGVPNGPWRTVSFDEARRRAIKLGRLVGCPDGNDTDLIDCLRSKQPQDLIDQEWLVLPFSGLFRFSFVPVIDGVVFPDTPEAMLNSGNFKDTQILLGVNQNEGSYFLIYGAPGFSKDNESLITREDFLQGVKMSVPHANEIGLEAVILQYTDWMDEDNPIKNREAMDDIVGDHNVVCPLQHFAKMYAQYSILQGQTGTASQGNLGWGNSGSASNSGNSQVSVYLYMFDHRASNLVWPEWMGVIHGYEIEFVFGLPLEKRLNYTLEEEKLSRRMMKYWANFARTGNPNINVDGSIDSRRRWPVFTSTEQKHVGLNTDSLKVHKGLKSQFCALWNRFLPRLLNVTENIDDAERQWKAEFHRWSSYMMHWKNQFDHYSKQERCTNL
# PROCEDURE_TEXT: Inhibition of electric eel AChE using acetylthiocholine iodide as substrate measured after 20 mins by Ellmans method
# maps each entry to its IC50

CHEM_SMILES	EXPERIMENTAL_SYSTEM	IC50
c1ccc2c(NCCCCCCCN3CCc4c([nH]c5ccccc45)C3)c3c(nc2c1)CCCC3	Acetylcholinesterase (Electrophorus electricus, UniProt O42275)	17.4 nM

Then this molecule:
Tell me the measured IC50 of O=C(CCCCN1CCc2c([nH]c3ccccc23)C1)Oc1ccc(/C=C2/CCc3nc4ccccc4c(=O)n32)cc1 , please. 1.08 nM

---

# maps each entry to its IC50
# EXPERIMENTAL_SYSTEM: Acetylcholinesterase (Electrophorus electricus, UniProt O42275)
# PROCEDURE_TEXT: Inhibition of electric eel AChE using acetylthiocholine iodide as substrate
Could you give me the number in µM? Just the number is fine.

MOLECULE	TEST_VALUE
COc1ccc2[nH]c3c(c2c1)CCN(C(=O)/C=C/c1ccc(O)c(O)c1)C3C (configuration not stated)	75.3

Then this molecule:
Field: IC50 (Acetylcholinesterase (Electrophorus electricus, UniProt O42275)). Entry: CC1c2[nH]c3ccccc3c2CCN1C(=O)/C=C/c1ccc(O)c(O)c1 (configuration not stated) 21.3

---

# EXPERIMENTAL_SYSTEM: Kinesin-like protein KIF11 (Homo sapiens, UniProt P52732)
# Sequence (P52732 whole entry): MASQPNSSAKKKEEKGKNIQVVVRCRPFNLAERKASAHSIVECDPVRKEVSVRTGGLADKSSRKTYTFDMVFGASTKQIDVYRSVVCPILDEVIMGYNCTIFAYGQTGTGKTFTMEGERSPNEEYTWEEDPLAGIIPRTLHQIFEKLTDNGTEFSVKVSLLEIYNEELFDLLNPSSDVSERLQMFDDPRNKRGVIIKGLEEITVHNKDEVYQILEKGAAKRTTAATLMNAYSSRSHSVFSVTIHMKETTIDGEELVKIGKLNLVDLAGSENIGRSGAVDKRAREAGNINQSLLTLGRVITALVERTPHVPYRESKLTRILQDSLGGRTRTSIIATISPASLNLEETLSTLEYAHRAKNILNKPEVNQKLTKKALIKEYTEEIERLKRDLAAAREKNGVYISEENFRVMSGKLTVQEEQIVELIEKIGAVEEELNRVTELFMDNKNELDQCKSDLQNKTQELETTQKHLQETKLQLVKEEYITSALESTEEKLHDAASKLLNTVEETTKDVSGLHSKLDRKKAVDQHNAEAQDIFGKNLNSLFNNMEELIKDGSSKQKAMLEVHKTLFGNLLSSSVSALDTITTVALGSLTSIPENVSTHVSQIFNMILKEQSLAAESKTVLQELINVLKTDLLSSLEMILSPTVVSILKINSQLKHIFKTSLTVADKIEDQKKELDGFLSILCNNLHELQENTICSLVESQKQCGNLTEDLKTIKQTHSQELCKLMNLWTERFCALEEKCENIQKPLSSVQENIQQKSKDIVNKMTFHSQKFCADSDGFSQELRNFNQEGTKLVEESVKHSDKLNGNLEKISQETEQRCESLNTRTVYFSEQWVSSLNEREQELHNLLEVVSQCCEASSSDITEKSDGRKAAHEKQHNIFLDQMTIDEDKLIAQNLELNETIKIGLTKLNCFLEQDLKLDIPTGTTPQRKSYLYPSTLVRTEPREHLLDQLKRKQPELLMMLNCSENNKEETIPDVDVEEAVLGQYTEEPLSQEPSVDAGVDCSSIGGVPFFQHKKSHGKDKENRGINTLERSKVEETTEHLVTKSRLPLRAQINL
REPORTED_METRIC: pIC50
Scale note: pIC50 = -log10(concentration in M).

Tell me the measured pIC50 of CCCCN1C(=O)[C@@H]2Cc3c([nH]c4ccccc34)[C@@H](c3cccc(O)c3)N2C1=O , please. 5.37
